PROPERTY MEASURED: melting point

Examples with answers:
>>> value_observed("O=C(O)/C=C/c1ccc(Oc2c(-c3ccccc3)c(CCC(F)(F)F)cc3cc(O)ccc23)cc1")
"118 to 120 °C"
>>> value_observed("CCCCCCCCc1cc2cc(O)ccc2c(Oc2ccc(/C=C/C(=O)O)cc2)c1-c1ccccc1")
"163 to 164 °C"
>>> value_observed("CCc1cc2cc(O)ccc2c(Oc2ccc(/C=C/C(=O)O)cc2)c1-c1ccccc1")
"188 to 190 °C"
>>> value_observed("CCCc1cc2cc(O)c(F)cc2c(Oc2ccc(/C=C/C(N)=O)cc2)c1-c1ccccc1")
"121 to 124 °C"
>>> value_observed("COCc1cc2ccccc2c(Oc2ccc(/C=C/C(=O)O)cc2)c1-c1ccccc1")
"76 to 79 °C"

Item under review: CCCc1cc2cc(O)c(F)cc2c(Oc2ccc(/C=C/C(=O)O)cc2)c1-c1ccccc1 . Reported melting point?
118 to 120 °C

Item under review: CCCCc1cc2ccccc2c(Oc2ccc(/C=C/C(=O)O)cc2)c1-c1ccc(O)cc1 . Reported melting point?
107 to 109 °C
